As shown below, each of these molecules has a reported melting point value.

In the examples that follow, each entry is paired with its recorded melting point.
CN(C)CC(c1ccc(OC(=O)C2CCCCC2)cc1)C1(O)CCCCC1 (stereo not shown) [1b] ... 122 to 124 °C
CN(C)CC(c1ccc(OC(=O)c2ccoc2)cc1)C1(O)CCCCC1 (stereo not shown) [1g] ... 159 to 162 °C
CN(C)CC(c1ccc(OC(=O)c2cccnc2)cc1)C1(O)CCCCC1 (stereo not shown) [1i] ... 180 to 182 °C
CN(C)CC(c1ccc(OC(=O)c2ccc3c(c2)OCO3)cc1)C1(O)CCCCC1 (stereo not shown) [1n] ... 154 to 157 °C
CC1CCC(C(=O)Oc2ccc(C(CN(C)C)C3(O)CCCCC3)cc2)CC1 (stereo not shown) [1c] ... 157 to 159 °C

Per the records, this molecule ( CC(C)C1CCC(C(=O)Oc2ccc(C(CN(C)C)C3(O)CCCCC3)cc2)CC1 (stereo not shown) [1d] ) has melting point equal to 149 to 152 °C

Per the records, this molecule ( CN(C)CC(c1ccc(OC(=O)c2ccc3c(c2)OCCO3)cc1)C1(O)CCCCC1 (stereo not shown) [1o] ) has melting point equal to 159 to 162 °C

Per the records, this molecule ( COc1ccc(C(=O)Oc2ccc(C(CN(C)C)C3(O)CCCCC3)cc2)cc1 (stereo not shown) [1k] ) has melting point equal to 133 to 137 °C

---

As shown below, each of these compounds has a reported melting point value.

In the examples that follow, each entry is paired with its recorded melting point.
CN(C)CC(c1ccc(OC(=O)c2ccsc2)cc1)C1(O)CCCCC1 (centres unmarked) ... 168 to 172 °C
CN(C)CC(c1ccc(OC(=O)CCc2ccccc2)cc1)C1(O)CCCCC1 (centres unmarked) ... 124 to 127 °C
CN(C)CC(c1ccc(OC(=O)C2CCCCCC2)cc1)C1(O)CCCCC1 (centres unmarked) ... 110 to 112 °C

Per the records, this compound ( CN(C)CC(c1ccc(OC(=O)C(C)(C)C)cc1)C1(O)CCCCC1 (centres unmarked) ) has melting point equal to 131 to 133 °C

Per the records, this compound ( CN(C)CC(c1ccc(OC(=O)C=Cc2ccccc2)cc1)C1(O)CCCCC1 (centres unmarked) ) has melting point equal to 118 to 122 °C
